Target: CDK9 CCNT1 (human) (UniProt P50750+O60563)
Sequence (O60563 whole entry, looked up): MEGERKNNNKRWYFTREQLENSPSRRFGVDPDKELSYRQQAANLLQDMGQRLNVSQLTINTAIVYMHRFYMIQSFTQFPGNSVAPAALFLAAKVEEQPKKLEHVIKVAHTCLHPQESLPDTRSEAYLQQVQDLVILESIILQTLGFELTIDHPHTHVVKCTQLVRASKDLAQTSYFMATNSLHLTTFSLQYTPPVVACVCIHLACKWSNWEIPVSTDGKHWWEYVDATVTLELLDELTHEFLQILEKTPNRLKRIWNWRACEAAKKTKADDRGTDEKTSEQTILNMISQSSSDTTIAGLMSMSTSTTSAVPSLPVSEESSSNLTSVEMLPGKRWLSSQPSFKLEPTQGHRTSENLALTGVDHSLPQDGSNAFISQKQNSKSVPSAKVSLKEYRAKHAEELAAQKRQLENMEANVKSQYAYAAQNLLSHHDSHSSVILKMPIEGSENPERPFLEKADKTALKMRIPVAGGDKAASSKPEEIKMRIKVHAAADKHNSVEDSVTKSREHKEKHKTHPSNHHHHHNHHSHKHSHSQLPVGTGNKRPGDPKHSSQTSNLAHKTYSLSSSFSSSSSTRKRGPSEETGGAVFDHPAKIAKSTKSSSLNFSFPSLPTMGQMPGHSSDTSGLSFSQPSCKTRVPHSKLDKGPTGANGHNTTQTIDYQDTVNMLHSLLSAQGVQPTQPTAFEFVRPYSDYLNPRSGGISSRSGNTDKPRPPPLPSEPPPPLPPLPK
Sequence (P50750 whole entry, looked up): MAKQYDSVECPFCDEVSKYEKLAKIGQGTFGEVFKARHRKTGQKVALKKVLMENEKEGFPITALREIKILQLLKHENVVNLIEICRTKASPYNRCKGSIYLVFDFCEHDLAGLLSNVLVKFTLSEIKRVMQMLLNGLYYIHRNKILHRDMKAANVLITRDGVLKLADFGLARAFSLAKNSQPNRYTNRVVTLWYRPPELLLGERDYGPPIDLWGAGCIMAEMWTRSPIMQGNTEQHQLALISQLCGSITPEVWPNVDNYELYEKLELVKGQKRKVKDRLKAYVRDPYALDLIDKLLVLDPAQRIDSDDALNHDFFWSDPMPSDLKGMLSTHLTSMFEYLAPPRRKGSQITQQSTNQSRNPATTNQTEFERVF
Assay: radiometric filter-binding kinase assay, Kinase HotSpot
Conditions: compound 0.5 µM; ATP 10 µM
Exercise: for every item that follows, state its recorded residual activity.

## Task Fill in the blank: the reported residual activity of Cc1cc(Nc2nc(-c3ccccc3)nc3ccccc23)n[nH]1 is ____.
## Result 89.1%

## Task Fill in the blank: the reported residual activity of FC(F)(F)c1ccc(/C=C/c2nc(COc3ccc(CCCCn4ccnn4)cc3)co2)cc1 is ____.
## Result 99.5%

## Task Fill in the blank: the reported residual activity of N/C(=N\N=C/c1ccc(-c2cccc([N+](=O)[O-])c2)o1)N[N+](=O)[O-] is ____.
## Result 109%

## Task Fill in the blank: the reported residual activity of O=C(c1ccccc1)c1ccc(N2CCOCC2)cc1O is ____.
## Result 97.9%

## Task Fill in the blank: the reported residual activity of O=c1cc(N2CCOCC2)oc2c(-c3ccccc3)cccc12 is ____.
## Result 103%

## Task Fill in the blank: the reported residual activity of O=c1c2ccccc2[nH]c(=S)n1CCN1CCC(=C(c2ccc(F)cc2)c2ccc(F)cc2)CC1 is ____.
## Result 102%

## Task Fill in the blank: the reported residual activity of CCOc1cc2ncnc(Nc3cccc(Br)c3)c2cc1OCC is ____.
## Result 98.5%

## Task Fill in the blank: the reported residual activity of O=c1c(-c2ccc(F)cc2)c(-c2ccncc2)[nH]n1-c1ccc(Cl)cc1 is ____.
## Result 101%

## Task Fill in the blank: the reported residual activity of COc1cc2ncnc(Nc3ccc(O)c(Br)c3)c2cc1OC is ____.
## Result 91.4%

## Task Fill in the blank: the reported residual activity of CN[C@@H]1C[C@H]2O[C@@](C)([C@@H]1OC)n1c3ccccc3c3c4c(c5c6ccccc6n2c5c31)C(=O)NC4 is ____.
## Result 1.38%

## Task Fill in the blank: the reported residual activity of COc1cc2c(cc1OC)-c1[nH]nc(Nc3cccc(F)c3)c1C2 is ____.
## Result 97.6%

## Task Fill in the blank: the reported residual activity of O=C1NC(=O)c2c1c1c3ccccc3[nH]c1c1[nH]c3cc(Br)ccc3c21 is ____.
## Result 87.5%

## Task Fill in the blank: the reported residual activity of O=C1NC(=O)c2cc(Nc3ccc(F)cc3)c(Nc3ccc(F)cc3)cc21 is ____.
## Result 95.4%

## Task Fill in the blank: the reported residual activity of N#CCCc1ccc2c(c1)-c1[nH]c3ccc([N+](=O)[O-])cc3c1CC(=O)N2 is ____.
## Result 28.6%
